Data provenance is ChEMBL document CHEMBL1150577.

- Tested on: U-937
- Assay Text: Inhibition of [14C]dehydroascorbic acid uptake in human U937 cells by Michaelis-Menten plot
- Assay type: functional, cell-based
pKi: −log10 of the molar value.

# Compound, pKi
data = [
    ("Oc1ccc(/C=C/c2cc(O)cc(O)c2)cc1 [RESVERATROL]", 4.46),
]
